# tested.on: MAGI2_5, Q86UL8
# Sequence (Q86UL8 915-1017): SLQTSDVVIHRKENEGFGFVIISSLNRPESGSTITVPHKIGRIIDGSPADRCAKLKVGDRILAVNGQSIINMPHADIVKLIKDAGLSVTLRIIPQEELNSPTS
# assay.notes: holdup assay
# Design: key: below the threshold = too weak to quantify, mostly under pKd 3.1 to 4
# experimental.parameters: plain residues with an end cap or a label only (N-terminal biotin on a linker: ado-ado)
Classify as follows. Reported pKd greater than or equal to 4: Yes. Reported pKd below: No.

binder	group
NISARRFTLC [FAM167B, Q9BTA0]	Yes
PLPPEEESWV [GAS2L2, Q8NHY3]	Yes
THHRKIHTRV [ZNF599, Q96NL3]	No
SRPHTNETSL [MCC, P23508]	No
ADEMICITTL [CACNA1D, Q01668]	Yes
LLQEEWETVM [PTH1R, Q03431]	Yes
YAEKRMLTEV [KCNA6, P17658]	Yes
KLQNPNQSVV [TYRP1, P17643]	No

Measured values drawn from paper PMC9482650 for this set.
